# Percent of Non-Transmitters which bound to peptide per record follows
# System: maternal sera (antibodies)
# ASSAY_PROTOCOL: ELISA peptide-binding of maternal sera (Example 6)
# Set-up: species or system human
# PROTOCOL_CONDITIONS: Non-Transmitters, N = 12
# Procedure: A total of 86 maternal sera samples obtained from patients of the Hospital of the University of Pennsylvania during the third trimester of pregnancy were used in this study 58 (67%) were non-transmitters and 28 (33%) were transmitters. This is approximately consistent with the national average (i.e. a rate of transmission between 25-30%). […] Because of the constraints on the volume of serum available for many of these samples, not all sera were analyzed with all the peptides. […]
Hi! Could you send only the number? It should be in %, unit omitted.

{"columns": ["SUBSTANCE", "OBSERVED"],
 "data": [
  ["WGIKQLQARILAVER [Peptide 120]", 0],
  ["RKSIGIQRGPGR [Peptide 1029-33]", 0],
  ["A604 (IIIB): Peptide A604 (IIIB), Sequence ID No. 193 (CTTAVPWNASWSNKS)", 16.7],
  ["RG-2: gp41 peptide, amino acids 678-697, HIV strain IIIB, SEQ ID NO: 178 (WLWYIKLFIMIVGGLVGLRI)", 0],
  ["5099: gp41 peptide, amino acids 512-543, HIV strain IIIB, SEQ ID NO: 162 (AYGIGALFLGFLGAAGSTMGAASMTLTVQARC) [Peptide 5099]", 83]
]}

Quick check: Percent of Non-Transmitters which bound to peptide of NATAIAVAEGTDRVIEVVQGAYRAI [1103/55] ?
0

// query: YNKRKRIHIQRGPGRAFYTTKNII [AIDS-PND]
58.3

Item: CFRPGGGDMRDNWREL [Peptide 466]
0

# iterate: A6938: gp120 peptide, amino acids 200-217, HIV strain IIIB, SEQ ID NO: 135 (VITQACPKVSFEPIPIHY) [Peptide A6938]
0
